- Test system: S. aureus Mu3
- Method: Secondary screening of compound 13 analogues in combination with gentamicin (growth by OD 595 nm)
- Test Parameters: [Cpd] 20 μM; [Genta] 100 ug/ml; relative to DMSO = 1
Classification field: fulfilled = relative growth at or over 0.9; not fulfilled = relative growth under 0.9.

COc1ccc(/C=C2\SC(=S)N(CC(=O)O)C2=O)cc1OCc1ccc(Cl)cc1 [Compound 15]	not fulfilled
O=C(O)CN1C(=O)/C(=C/c2ccc(OCc3ccccc3)cc2)SC1=S [Compound 3]	fulfilled
COC(=O)c1ccccc1 [Compound 29]	not fulfilled
COc1ccc(/C=C2\SC(=S)N(CC(=O)O)C2=O)cc1OCc1ccc(Cl)cc1Cl [Compound 18]	not fulfilled
CCOc1cc(/C=C2\SC(=S)N(CC(=O)O)C2=O)ccc1OCc1ccc(Cl)c(Cl)c1 [Compound 34]	not fulfilled

Below: the item to evaluate.
Dear colleague, could you confirm whether COC(=O)c1ccccc1 [Compound 2] has relative growth at or above 0.9?
fulfilled
